Data origin, for the record: PubChem BioAssay (NCI)

Listed next: entries and their corresponding TGI.
- Tested on: SNB-75 CNS
- procedure text: NCI tumour cell line growth inhibition, 48 h
Numeric answer only, unit µM assumed.

Look over these answered cases.
compound	TGI [µM]
Cc1ccc(NC(=O)CC(=O)n2nc(C)c(N=Nc3cccc(C)c3)c2C)cc1	62.3
COc1cc(-c2cc(=O)c3c(O)c(OC)c(OC)c(OC)c3o2)cc(OC)c1OC	6.2
CN1CCN([C@H]2C[C@H]3[C@@H]4CC=C5C[C@@H](O)CC[C@]5(C)[C@H]4CC[C@]3(C)[C@H]2O)CC1	97.4
CC1OC(=O)C(C(C)C)NC(=O)C(C(C)C)OC(=O)C(C(C)C)NC(=O)C(C)OC(=O)C(C(C)C)NC(=O)C(C(C)C)OC(=O)C(C(C)C)NC(=O)C(C)OC(=O)C(C(C)C)NC(=O)C(C(C)C)OC(=O)C(C(C)C)NC1=O (configuration not stated)	0.00378
O=c1[nH]c2ccc([N+](=O)[O-])cc2nc1/C=C(\O)c1ccccc1	58.3
O=CCCCC(Sc1ccccc1)Sc1ccccc1	35.9
CC(=O)[C-](C(C)=O)c1ccccc1.CC(=O)[C-](C(C)=O)c1ccccc1.CC(=O)[C-](C(C)=O)c1ccccc1.[Cl-].[Zr+4]	83.9
CN(C)/C=C/C=C(/C=N/S(=O)(=O)C(F)(F)F)C1C=CN(S(=O)(=O)C(F)(F)F)C=C1	50.6
O=c1c2ccccc2nc(-c2ccccc2)n1NC(=S)Nc1cccc(Cl)c1	59.6

Lab note: next compound to report on.
Any idea what TGI came out for COc1ccccc1NC(=S)N/N=C/c1cccc(C)n1 on SNB-75 CNS? 53.5

====

Listed next: entries and their corresponding GI50.
- Test system: RPMI-8226 leukemia
- procedure text: NCI tumour cell line growth inhibition, 48 h
Where a SMILES comes first, the peptide text is derived from it. The star is where a group is joined. Trt = c1ccc(C(c2ccccc2)(c2ccccc2)*)cc1; Cbz = O=C(OCc1ccccc1)*

Look over these answered cases.
compound	GI50
Cc1c2ccncc2c(C)c2c1[nH]c1ccc(Cl)cc12	1770 nM
Cn1cc(C2=C(c3cn(CCCCC(=N)N)c4ccccc34)C(=O)NC2=O)c2ccccc21	> 25000 nM

Looking for the measured GI50 of COc1ccc2c(c1)/C(=N/OC(C)=O)c1c-2cnc2ccccc12 , can you help? 22300 nM

Looking for the measured GI50 of CCCN1CCC=C(c2ccc(Nc3nc(Nc4ccccc4C(N)=O)c4cc[nH]c4n3)c(C)c2)C1 , can you help? 5530 nM

Looking for the measured GI50 of O=Cc1ccc(N2CCN(c3ccc(C=O)cc3)CC2)cc1 , can you help? > 100000 nM

Looking for the measured GI50 of O=C(C=C=Nc1ccccc1)C(=O)N=C=Cc1ccccc1 , can you help? 534 nM

Looking for the measured GI50 of COc1cc(/C=N/NC(=O)c2ccccc2Nc2cccc(C(F)(F)F)c2)cc(OC)c1OC , can you help? 754 nM

Looking for the measured GI50 of COC(=O)C(CSC(c1ccccc1)(c1ccccc1)c1ccccc1)NC(=O)C(CC(N)=O)NC(=O)OCc1ccccc1 (stereo not drawn) (Cbz-Asn-Cys(Trt)-OMe; configuration not given here) , can you help? 2290 nM

====

- Test system: NCI-H23 lung
- procedure text: NCI tumour cell line growth inhibition, 48 h
readout kind: TGI

Look over these answered cases.
> print(dat)
                                   molecule  reported
1  Cc1cc(=O)oc2c(CNC(CC(C)C)C(=O)O)c(O)ccc12 (stereo not given)  > 100 µM
2  Cc1c(Cl)cccc1NC(=O)c1sc2nc3c(cc2c1N)CCCC3  > 100 µM
3  CNC(c1ccncc1)C(NC)c1ccncc1 (stereo not given)  > 100 µM
4  COc1ccc2c(c1)/C(=N/OC(C)=O)c1c-2cnc2ccccc12  > 100 µM
5  CCn1c2ccccc2c2cc(Nc3cc(C)[nH]c(=O)n3)ccc21  > 100 µM
6  COc1ccc(-c2n/c(=C\c3c(O)[nH]c4ccccc34)cc3c2=Nc2ccccc2-3)cc1   3.09 µM

Looking for the measured TGI of O=[N+]([O-])/C(C(Cl)=C(Cl)Cl)=C(/Nc1ccccc1)Sc1ccccc1 , can you help? 36.2 µM

Looking for the measured TGI of CCOC(=O)Cn1c(=O)c(C)cn(COCCO)c1=O , can you help? > 100 µM

Looking for the measured TGI of Cc1ccc(/C=C2/N=C(N/N=C\c3ccccc3)NC2=O)cc1 , can you help? > 100 µM

Looking for the measured TGI of CC(C)(C)[Si](C)(C)OC[C@H](/C=C\CCCC(=O)O)NC1(c2ccccc2)c2ccccc2-c2ccccc21 , can you help? 63.2 µM
